Each recorded value in this set is attributed to PubChem BioAssay (NCI).

# experiment.notes: NCI Yeast Anticancer Drug Screen. Data for the bub3 strain (AID 167)
# details: S. cerevisiae bub3 mutant strain, at 50.0 µM, hits give high values
This is part of a sample that, as a whole, favours compounds with a hit. Of some 79,000 tested, about 15% had one in any assay. Activity calls are given as the source filed them. Rule as the data show it: active = growth inhibition above about 70%; inactive = the rest.
growth inhibition by entry:

In the examples that follow, each entry is paired with its recorded growth inhibition.
compound	result
CC(O)C(=O)OCCOCCOC(=O)C(C)O (centres undefined)	11.8% (inactive)
CC(C)(O)CCC(O)C(C)(O)C1CCC2(O)C3=CC(=O)C4(O)CC(O)C(O)CC4(C)C3CCC12C (centres undefined) (tested in a mixture with another compound)	-17.4% (inactive)
CCOC(=O)C1=C(C)NC(C)=C(C(=O)OCC)C1C	-22.1% (inactive)

What measured growth inhibition goes with "CC(=O)N1CC=CCC1" ? -1.55% (inactive)

What measured growth inhibition goes with "COC(=O)c1cc(=O)n(C)[nH]1" ? 6.65% (inactive)

What measured growth inhibition goes with "COn1nnc2c([N+](=O)[O-])cccc21" ? -16.4% (inactive)

What measured growth inhibition goes with "Cc1ccc(Cl)cc1NC(=O)Oc1ccc(C(C)(C)C)cc1Br" ? 19.9% (inactive)

What measured growth inhibition goes with "COc1ccc2c3c([nH]c2c1)CCN(CCCC(=O)c1ccc(F)cc1)C3" ? 45.2% (inactive)

What measured growth inhibition goes with "Cc1cc(C)n(/N=C/c2ccccc2)c(=O)c1C#N" ? 35.6% (inactive)

What measured growth inhibition goes with CN1CCN(CC2C(=O)C3CCC2C3)CC1 (centres undefined) ? -22.7% (inactive)

What measured growth inhibition goes with C=CC1=C(C)C2=NC1=CC1=NC(=CC3=C(C)C4=C(O)C(C(=O)OC)C(=C5NC(=C2)C(C)C5CCC(=O)OC)C4=N3)C(CC)=C1C (centres undefined) ? 4.95% (inactive)

What measured growth inhibition goes with "CC(=O)Nc1ccc(S(=O)(=O)NNC(=O)C(=O)Nc2cccc(Cl)c2)cc1" ? -0.1% (inactive)

What measured growth inhibition goes with "O=C(Nc1ccccc1Br)c1ccc(F)cc1" ? 14.8% (inactive)

What measured growth inhibition goes with "C[P+](C)(C)c1ccccc1" ? 3.15% (inactive)

What measured growth inhibition goes with CCOC(=O)C1C=C1C(C)(C)O (centres undefined) ? 3.9% (inactive)

What measured growth inhibition goes with "CCCCCCCCOCCS(=O)(=O)O" ? -10.8% (inactive)

What measured growth inhibition goes with "O=C(NC1CC1)C1CC1" ? 1.7% (inactive)

What measured growth inhibition goes with "Clc1cccc(Cl)c1C(Nc1ncccn1)Nc1ncccn1" ? 9.6% (inactive)

What measured growth inhibition goes with "Cc1nc(Cl)c(Cl)c(Cl)n1" ? -4% (inactive)
